TEST_SETTINGS: 298.15 K; 101.33 kPa; Liquid
Response key: Criterion met means viscosity >= 0.5 mPa·s; Criterion not met means viscosity < 0.5 mPa·s.

Incoming: Item CO [methanol] with viscosity of 0.5 mPa·s or above?
Outgoing: Criterion met

Incoming: Then what about the molecule C1CCOC1 [tetrahydrofuran] ?
Outgoing: Criterion not met

Incoming: Then what about the molecule C[S+](C)[O-] [dimethyl sulfoxide] ?
Outgoing: Criterion met

Incoming: Then what about the molecule CCCCn1cc[n+](C)c1.F[P-](F)(F)(F)(F)F [1-butyl-3-methylimidazolium hexafluorophosphate] ?
Outgoing: Criterion met

Incoming: Then what about the molecule CC#N [acetonitrile] ?
Outgoing: Criterion not met

* * *

TEST_SETTINGS: 298.15 K; 101.33 kPa; Liquid; Sing-around technique in a fixed-path interferometer
For each entry below, report its speed of sound value.
Write it as a number; the unit m/s goes unstated.

Incoming: Name the recorded speed of sound for CO .
Outgoing: 1102.9

Incoming: Then what about the compound CC#N ?
Outgoing: 1278.7

Incoming: Then what about the compound C[S+](C)[O-] [dimethyl sulfoxide] ?
Outgoing: 1485

Incoming: Then what about the compound C1CCOC1 [tetrahydrofuran] ?
Outgoing: 1278.2

* * *

For each entry below, report its refractive index value.
MEASUREMENT_PROTOCOL: refractive index (Na D-line) (dimensionless)
TEST_SETTINGS: 298.15 K; 101.33 kPa; Liquid; Standard Abbe refractometry
Give a plain numeric answer without units written out.

Incoming: Name the recorded refractive index for C[S+](C)[O-] [dimethyl sulfoxide] .
Outgoing: 1.4769

Incoming: Then what about the compound CO [methanol] ?
Outgoing: 1.3269

Incoming: Then what about the compound CC#N [acetonitrile] ?
Outgoing: 1.3419

Incoming: Then what about the compound C1CCOC1 [tetrahydrofuran] ?
Outgoing: 1.405

* * *

TEST_SETTINGS: 298.15 K; 101.33 kPa; Liquid
For each entry below, report its mass density value.
Write it as a number; the unit kg/m3 goes unstated.

Incoming: Name the recorded mass density for CC#N [acetonitrile] .
Outgoing: 776.565

Incoming: Then what about the molecule CO [methanol] ?
Outgoing: 786.654

Incoming: Then what about the molecule C1CCOC1 [tetrahydrofuran] ?
Outgoing: 882.008

Incoming: Then what about the molecule C[S+](C)[O-] [dimethyl sulfoxide] ?
Outgoing: 1095.3

Incoming: Then what about the molecule CCCCn1cc[n+](C)c1.F[P-](F)(F)(F)(F)F [1-butyl-3-methylimidazolium hexafluorophosphate] ?
Outgoing: 1366.07
